Assay: ATG_Ets_CIS: Attagene CIS-FACTORIAL HepG2 Assay for human Erythroblast Transformation Specific (ETS) (AID 2282941)
Settings: HepG2 ETS cis-reporter transcription, actives raise or lower the signal
The source made the active and inactive calls. How the source made its calls: active means hit-call score of the fitted dose curve at least 0.9, where 1 is the maximum; inactive means score below 0.9.
OUTCOME_MEASURE: outcome

Examples from the recorded data:
O=C(O)c1ccco1; inactive
CC1(C)CC(=O)CC(C)(C)N1; inactive
NC(=O)c1cccnc1; inactive
CCCCN(CCCC)CCCCCCN(CCCC)CCCC; inactive
CCOC(=O)C=Cc1ccccc1; inactive

Return outcome for the following compound: `OC[C@H]1O[C@@H](O[C@H]2[C@H](O)[C@@H](O)[C@H](O)O[C@@H]2CO)[C@H](O)[C@@H](O)[C@H]1O`
inactive

Return outcome for the following compound: `Nc1cc([N+](=O)[O-])ccc1C(=O)O`
inactive

Return outcome for the following compound: `CC(=O)N(C)C`
inactive

Return outcome for the following compound: `CC(C)COC(=O)c1ccccc1O`
inactive

Return outcome for the following compound: `COc1ccccc1O`
inactive

----------
Assay: BSK_MyoF_SRB: Viability Assessment in the BioMAP Diversity Plus: MyoF Assay (AID 2284267);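 further: total protein by SRB absorbance in parallel cultures as cytotoxicity measure; cells assessed 24 h after compound addition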
Conditions: primary human lung fibroblasts
Calls of active or inactive are those of the source. The calls were made as follows: active = hit-call score of the fitted dose curve at least 0.9, where 1 is the maximum; inactive = score below 0.9.
# output must be one of active, inactive

C=C1CC/C=C(\C)CC[C@@H]2[C@@H]1CC2(C)C; active
C=C(F)C(=O)OC(C(F)(F)F)C(F)(F)F; inactive
CC(=O)OC(C)(C)C1CC=C(C)CC1 (centres undefined); inactive

Kindly review the next compound as well.
Query: recorded result category for `C=CC(=O)OCC(CO)(COC(=O)C=C)COC(=O)C=C` in this test
active

----------
Assay: CEETOX_H295R_CORTIC: CeeTox H295R High-throughput Steroidogenesis Assay for Corticosterone (CORTIC) (AID 2283437);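 further: corticosterone secreted into medium quantified by mass spectrometry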
Conditions: actives raise or lower the signal
Active and inactive are the calls of the source. Rule for the calls: active = hit-call score of the fitted dose curve at least 0.9, where 1 is the maximum; inactive = score below 0.9.
# output must be one of true (active), false (inactive)

Query: recorded result category for `CC(=O)c1ccc2ccccc2c1` in this test
false

----------
Target: Cellular tumor antigen p53 (Homo sapiens) (UniProt P04637)
Sequence (P04637 whole entry, looked up): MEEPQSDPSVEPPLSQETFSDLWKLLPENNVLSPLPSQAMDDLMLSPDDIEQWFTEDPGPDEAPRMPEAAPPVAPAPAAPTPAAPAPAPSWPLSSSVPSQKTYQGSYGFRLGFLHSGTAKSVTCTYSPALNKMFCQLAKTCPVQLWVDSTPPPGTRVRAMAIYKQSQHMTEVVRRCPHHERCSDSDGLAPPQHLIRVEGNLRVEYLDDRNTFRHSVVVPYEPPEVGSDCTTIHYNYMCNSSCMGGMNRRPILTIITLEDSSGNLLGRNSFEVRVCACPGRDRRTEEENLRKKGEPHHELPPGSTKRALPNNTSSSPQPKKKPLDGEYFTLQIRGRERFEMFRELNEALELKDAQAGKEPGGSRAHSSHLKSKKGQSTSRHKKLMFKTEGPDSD
Assay: TOX21_p53_BLA_p2_ratio: Tox21 HCT-116 p53 Agonism Beta-lactamase Assay, Ratio, Phase 2 (AID 2283592)
Results filed as inconclusive are left out. Calls of active or inactive are those of the source. How the source made its calls: active means hit-call score of the fitted dose curve at least 0.9, where 1 is the maximum; inconclusive means response in the unintended direction; inactive means score below 0.9.
# output must be one of active, inactive

Query: recorded result category for `FC(F)(F)c1ccc(Cl)c(Cl)c1` in this test
inactive

Query: recorded result category for `NC(=O)NC(N)=O` in this test
inactive

Query: recorded result category for `OC[C@H]1O[C@@H](O[C@H]2[C@H](O)[C@@H](O)[C@H](O)O[C@@H]2CO)[C@H](O)[C@@H](O)[C@H]1O` in this test
inactive

Query: recorded result category for CCCCOC(=O)C(C)OC(=O)CCC (stereo unspecified) in this test
inactive

Query: recorded result category for `CCOC(=O)CCCCCCCCC(=O)OCC` in this test
inactive

Query: recorded result category for `O=S(=O)(O)c1cc(S(=O)(=O)O)c2c(N=Nc3ccccc3)c(O)ccc2c1` in this test
inactive

Query: recorded result category for `COC(=O)c1cccc(C(=O)OC)c1` in this test
inactive

Query: recorded result category for `CCCO` in this test
inactive

----------
Assay: ATG_MRE_CIS: Attagene CIS-FACTORIAL HepG2 Assay for human Metal Responsive Element (MRE) (AID 2282954)
Settings: HepG2 MRE cis-reporter transcription, Attagene multiplex; actives raise or lower the signal
Activity calls are given as the source filed them. Rule for the calls: active = hit-call score of the fitted dose curve at least 0.9, where 1 is the maximum; inactive = score below 0.9.
# output must be one of active, inactive

CC(C)(C)c1ccc(S)cc1; inactive
CC/C=C\C#N; inactive
CC(=O)CCc1ccc(O)cc1; inactive
Brc1cc(Br)cc(Br)c1; inactive

Query: recorded result category for `CCC(C)(C)c1cc(O)c(C(C)(C)CC)cc1O` in this test
active

Query: recorded result category for `Cc1cc(O)c2c(c1)C(=O)c1cc(O)cc(O)c1C2=O` in this test
active

Query: recorded result category for COC(=O)C(C)Oc1ccc(Oc2ncc(C(F)(F)F)cc2Cl)cc1 (configuration not stated) in this test
active

Query: recorded result category for `O=C(O)c1cccc(Cl)n1` in this test
inactive

Query: recorded result category for `NC(=O)c1cnccn1` in this test
inactive

Query: recorded result category for CC1=CCC(C(C)(C)O)CC1 (configuration not stated) in this test
inactive

Query: recorded result category for CCCC(O)C(CC)CO (configuration not stated) in this test
inactive

Query: recorded result category for `C[C@H](CCC(=O)O)[C@H]1CC[C@H]2[C@@H]3CC[C@@H]4C[C@H](O)CC[C@]4(C)[C@H]3CC[C@]12C` in this test
active

Query: recorded result category for CC(CCO)CC(C)(C)C (configuration not stated) in this test
inactive

Query: recorded result category for `CCC(C)(C)C1CCC(=O)CC1` in this test
inactive

Query: recorded result category for `O=C(O)c1cc2ccccc2cc1O` in this test
inactive

Query: recorded result category for `c1coc(CNc2ncnc3nc[nH]c23)c1` in this test
inactive

Query: recorded result category for `NC(=O)c1cccnc1` in this test
inactive

Query: recorded result category for `CC(=O)c1ccc(C)cc1` in this test
inactive

Query: recorded result category for `CCCCC/C=C\C=C\C(=O)OCC` in this test
active

Query: recorded result category for `CCCCCCCCCO` in this test
inactive

Query: recorded result category for CC1COC(=O)O1 (configuration not stated) in this test
inactive

Query: recorded result category for `CC(C)(O)C(=O)c1ccc(OCCO)cc1` in this test
inactive

Query: recorded result category for `CCOc1ccc(NC(C)=O)cc1` in this test
inactive

Query: recorded result category for `CCCCCCCCCCCCN1CCOCC1` in this test
inactive
